B1: CPEB3 Ribozyme (parent)
chain: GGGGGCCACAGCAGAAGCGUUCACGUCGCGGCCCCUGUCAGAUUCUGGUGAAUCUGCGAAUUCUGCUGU

# Variants of: B1
# measurement_description: self-cleavage, relative activity (ratio to wild type); higher = more cleavage; co-transcriptional
// map self-cleavage to label using A (below 0.2), B (0.2 to below 0.6), C (0.6 or more)

Field: example entries. Status: answers known.
{"changes": "U46G U69C", "assigned_category": "C"}
{"changes": "A16C C27A", "assigned_category": "A"}
{"changes": "G14A C32G", "assigned_category": "B"}
{"changes": "G1A U26G", "assigned_category": "A"}
{"changes": "G5U A23U", "assigned_category": "B"}

For the record A60U C63U , report the class its self-cleavage corresponds to.
B

# classify by self-cleavage band: "C22U"
B

Into which bin does this variant go? C33U A60G
C

Pick a category. Item: A15G C54G
C

Lab note: sort U49C G56C into the matching self-cleavage band.
C

Which category fits this record: U21A A23G
C

Place this variant in its band: G2A U55C
A

Kindly identify the class of A51C U62C .
C
